test system: SR; test: NCI tumour cell line growth inhibition, 48 h
The source made the active and inactive calls. No stated cut-off is given here; in the data, active = GI50 up to about 1.1 µM and inactive = higher. Peptide text beside a SMILES is read from it. * marks the point of attachment. Cbz = O=C(OCc1ccccc1)*; CH2Cl = ClC*
Classes to choose from: class 1 for active, class 0 for inactive

Check out these entries, answers already filled in.
>>> print(df.to_string())
                                   molecule  discrete_label
0  C=CC(c1ccccc1)[C@@]1(OC(C)=O)C(=O)C(=O)OC1C1COC(C)(C)O1 (some centres undefined)         class 0
1  CN(C)CC1CCCC(CN(C)C)C1=NOC(=O)c1ccccc1 (centres undefined)         class 0
2  CCOC1SC(SC)=NN1C(=O)C(OC(C)=O)C(OC(C)=O)C(OC(C)=O)C(OC(C)=O)C(=O)N1N=C(SC)SC1OCC (centres undefined)         class 0
3  COc1cc2c(c(OC)c1OC)-c1ccc(SC)c(=O)cc1[C@@H](NC(=O)c1ccc([N+](=O)[O-])cc1)CC2         class 1
4  COC1=C(OC)C(=O)C(Cc2c(Cl)nc3n2CCS3)=C(C)C1=O         class 0

Hey, what did the test say about CCc1cccc(C(C)CC)c1NC(=O)CC1C(=O)Nc2ccccc2[S+]1[O-] (centres undefined) ?
class 0

Hey, what did the test say about Cc1ccc(S(=O)(=O)N2CC(CCN)c3ccccc32)cc1 (centres undefined) ?
class 0

Hey, what did the test say about CCOC(=O)c1c(N2CCCC2)[nH]c(=O)c(C(c2ccco2)c2c(O)c(C(=O)OCC)c(N3CCCC3)[nH]c2=O)c1O ?
class 0

Hey, what did the test say about C=Cc1ccc(C)[n+](C[Si](C)(C)O[Si](C)(C)C[n+]2cc(C=C)ccc2C)c1 ?
class 0

Hey, what did the test say about COc1ccc2c(=O)c3cc([N+](=O)[O-])ccc3n(C)c2c1 ?
class 0

Hey, what did the test say about COc1ccc(C(=O)O)c2c(=O)c3cccnc3[nH]c12 ?
class 0

Hey, what did the test say about COc1ccc(C2Oc3ccc(Cl)cc3C=C2[N+](=O)[O-])cc1 (centres undefined) ?
class 0

Hey, what did the test say about CC(C)OP(=O)(OC(C)C)/C(I)=N/Nc1ccc([N+](=O)[O-])cc1 ?
class 0

Hey, what did the test say about CC(C)CC(NC(=O)OCc1ccccc1)C(=O)NC(Cc1ccccc1)C(=O)CCl (stereo not drawn) (Cbz-Leu-Phe-CH2Cl; configuration not given here) ?
class 1

----------
system: MDA-MB-435; test: NCI tumour cell line growth inhibition, 48 h
Calls of active or inactive are those of the source. Cut-off read from the data, not from the text of the source: active = GI50 up to about 1.1 µM and inactive = higher. Positions of bridges follow the written chain, without caps; N, C: chain ends. Residues, ends and D or L forms follow the SMILES beside them.
Classes to choose from: true (active), false (inactive)

molecule	target	discrete_label
O=[N+]([O-])c1ccc(C(Nc2ccccc2)P(c2ccccc2)c2ccccc2)cc1 (centres undefined)	MDA-MB-435	false
CCOC(=O)CNC(=O)C(CSC(=O)N(O)c1ccc(Br)cc1)NC(=O)CCC(N)C(=O)OCC (centres undefined)	MDA-MB-435	false
COc1ccc(/C=c2\c(=O)[nH]c3nc4ccccc4c(=O)n23)cc1	MDA-MB-435	false
CC(=O)OCC12C(OC(C)=O)C(=O)C3C(OC(C)=O)C14OC3(C)COC(=O)c1cccnc1C(C)C(C)C(=O)OC(C(OC(C)=O)C2OC(C)=O)C4(C)O (centres undefined)	MDA-MB-435	false
N#Cc1nc(/C=C/c2ccccc2)oc1N	MDA-MB-435	false
N#Cc1ccc(NC(=O)C(CC(=O)OCc2ccccc2)NC(=O)OCc2ccccc2)cc1 (centres undefined)	MDA-MB-435	false
Cc1nc2ccccc2[nH]/c1=N/Nc1ccccc1	MDA-MB-435	false
CN(C)c1ccc(/C=N/c2ccc(-c3nc4ccccc4s3)cc2)cc1	MDA-MB-435	false
Nc1c(C(=O)c2ccc(Cl)c(Cl)c2)[nH]c(NCc2ccccc2)c1C(=S)Nc1ccccc1	MDA-MB-435	false
CCC(C)C1NC(=O)C(CC(C)C)NC(=O)C(C(C)C)NC(=O)C2CSSCC(NC1=O)C(=O)N2 (centres undefined) (cyclo(CCVLI); disulfide 1-2; configuration not given here)	MDA-MB-435	true

Hey, what did the test say about CC(C)CNCCc1ccccn1 ?
false

Hey, what did the test say about CC1(C)CCCCCCCCCC(C)(CCCO)C1=O (centres undefined) ?
false

Hey, what did the test say about CCC/C(Cl)=N\OC(=O)Nc1ccc(Br)cc1 ?
false

Hey, what did the test say about O=[N+]([O-])C(=C/c1ccccc1)/C(=C\c1ccccc1)[N+](=O)[O-] ?
false

Hey, what did the test say about C=C1C(=O)[C@]23C[C@H]1C[C@@H](O)[C@H]2[C@]1(COC3=O)[C@@H](OC(C)=O)CC[C@@](C)(COC(C)=O)[C@H]1C=O ?
false
